target.desc: T1, MtrA (Mycobacterium tuberculosis H37Rv, UniProt P9WGM7 1-228)
T1 sequence: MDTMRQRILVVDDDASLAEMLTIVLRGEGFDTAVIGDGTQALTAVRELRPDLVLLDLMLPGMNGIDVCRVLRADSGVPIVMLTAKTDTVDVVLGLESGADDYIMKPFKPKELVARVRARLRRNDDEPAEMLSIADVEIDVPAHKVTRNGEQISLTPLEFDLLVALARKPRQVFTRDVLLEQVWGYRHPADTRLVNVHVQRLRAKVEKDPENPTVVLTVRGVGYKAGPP
measurement.notes: BLI
reported.conditions: protein: recombinant; tags: His6 (pET28a, BamHI/XhoI; N-terminal, inferred from stop codon in reverse primer); chain copies: 2; blunt
pKd: −log10 of the molar value.

binder	pKd
artificial highest-contribution sequence (dsDNA) DNA 1: GTTTTGTTATCGTTTTGTGATATGGA DNA 2: TCCATATCACAAAACGATAACAAAAC	6.61
Rv0309 fragment (dsDNA) DNA 1: GCTTTGTCACCGCACAGTGACCCAGC DNA 2: GCTGGGTCACTGTGCGGTGACAAAGC	3.75
